Origin of values: ChEMBL document CHEMBL1137899

Assay System: Sodium/glucose cotransporter 2 (Homo sapiens, UniProt P31639)
Test Summary: In vitro inhibition of Na-dependent [14C]AMG uptake in CHO-K1 cells expressing human sodium glucose co-transporter 2
Please go through the items and note down their Ki.
Numbers only, in nM.

Please supply Ki for each of the following items, keeping them in order.
1. O=C(CCc1ccc2c(c1)OCCO2)c1c(O)cc(Cl)cc1O[C@@H]1O[C@H](CO)[C@@H](O)[C@H](O)[C@H]1O
2. CC(C)c1cc(O)c(C(=O)CCc2ccc3c(c2)OCCO3)c(O[C@@H]2O[C@H](CO)[C@@H](O)[C@H](O)[C@H]2O)c1
3. Cc1cc(N)c(C(=O)CCc2ccc3c(c2)OCCO3)c(O[C@@H]2O[C@H](CO)[C@@H](O)[C@H](O)[C@H]2O)c1

Result:
1: 20; 2: 20; 3: 290

====

Assay System: Sodium/glucose cotransporter 2 (Homo sapiens)
Sequence (P31639 whole entry): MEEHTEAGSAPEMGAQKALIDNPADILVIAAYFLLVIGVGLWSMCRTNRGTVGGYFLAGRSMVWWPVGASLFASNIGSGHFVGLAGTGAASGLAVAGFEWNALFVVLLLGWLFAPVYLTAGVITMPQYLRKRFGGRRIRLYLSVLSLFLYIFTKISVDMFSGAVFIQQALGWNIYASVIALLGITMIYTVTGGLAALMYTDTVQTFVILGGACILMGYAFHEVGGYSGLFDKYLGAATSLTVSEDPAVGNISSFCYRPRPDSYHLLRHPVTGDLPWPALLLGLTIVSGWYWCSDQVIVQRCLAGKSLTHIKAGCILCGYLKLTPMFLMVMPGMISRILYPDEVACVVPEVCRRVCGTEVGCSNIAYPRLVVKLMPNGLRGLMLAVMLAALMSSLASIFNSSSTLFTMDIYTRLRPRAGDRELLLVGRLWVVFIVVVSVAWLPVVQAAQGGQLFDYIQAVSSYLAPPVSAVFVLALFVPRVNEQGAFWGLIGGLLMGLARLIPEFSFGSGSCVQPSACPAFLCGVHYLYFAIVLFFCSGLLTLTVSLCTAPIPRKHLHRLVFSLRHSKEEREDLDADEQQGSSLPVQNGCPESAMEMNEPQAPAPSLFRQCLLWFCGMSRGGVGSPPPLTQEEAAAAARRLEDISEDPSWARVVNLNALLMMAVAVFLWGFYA
Test Summary: In vitro inhibition of Na-dependent [14C]AMG uptake in CHO-K1 cells expressing human sodium glucose co-transporter 2
Recorded Endpoint: pKi
Answers are plain numbers, as −log10 of the molar value.

Previously resolved entries follow.
Cc1cc(O)c(C(=O)CCc2ccc3occc3c2)c(O[C@@H]2O[C@H](CO)[C@@H](O)[C@H](O)[C@H]2O)c1: 8.40
CC(C)c1cc(O)c(C(=O)CCc2ccc3ccccc3c2)c(O[C@@H]2O[C@H](CO)[C@@H](O)[C@H](O)[C@H]2O)c1: 6.82
Cc1cc(O)c(C(=O)CCc2ccc3c(c2)OCCO3)c(O[C@@H]2O[C@H](CO)[C@@H](O)[C@H](O)[C@H]2O)c1: 8.05
CCc1cc(O)c(C(=O)CCc2ccc3c(c2)OCCO3)c(O[C@@H]2O[C@H](CO)[C@@H](O)[C@H](O)[C@H]2O)c1: 8.00
CCOc1ccc(CCC(=O)c2c(O)cc(Cl)cc2O[C@@H]2O[C@H](CO)[C@@H](O)[C@H](O)[C@H]2O)cc1: 7.10
O=C(CCc1ccc2ccccc2c1)c1c(O)cc(F)cc1O[C@@H]1O[C@H](CO)[C@@H](O)[C@H](O)[C@H]1O: 7.15

Please supply pKi for each of the following items, keeping them in order.
1. Cc1cc(O)c(C(=O)CCc2ccc3ccccc3c2)c(O[C@@H]2O[C@H](CO)[C@@H](O)[C@H](O)[C@H]2O)c1
2. Cc1cc(O)c(C(=O)CCC2CCCCC2)c(O[C@@H]2O[C@H](CO)[C@@H](O)[C@H](O)[C@H]2O)c1
3. Cc1cc(O)c(C(=O)CCc2ccoc2)c(O[C@@H]2O[C@H](CO)[C@@H](O)[C@H](O)[C@H]2O)c1
4. CCOc1ccc(CCC(=O)c2c(O)cc(C(C)C)cc2O[C@@H]2O[C@H](CO)[C@@H](O)[C@H](O)[C@H]2O)cc1
5. CCOc1ccc(CCC(=O)c2c(O)cc(CC)cc2O[C@@H]2O[C@H](CO)[C@@H](O)[C@H](O)[C@H]2O)cc1
6. Cc1cc(O)c(C(=O)CCc2ccsc2)c(O[C@@H]2O[C@H](CO)[C@@H](O)[C@H](O)[C@H]2O)c1

Result:
1: 8.00; 2: 7.40; 3: 6.64; 4: 6.96; 5: 7.52; 6: 7.15

Query: Item under review: CCc1cc(O)c(C(=O)CCc2ccc3ccccc3c2)c(O[C@@H]2O[C@H](CO)[C@@H](O)[C@H](O)[C@H]2O)c1 . Reported pKi?
Result: 8.00

====

Assay System: Sodium/glucose cotransporter 2 (Homo sapiens)
Test Summary: In vitro inhibition of Na-dependent [14C]AMG uptake in CHO-K1 cells expressing human sodium glucose co-transporter 2
Assay type: functional, cell-based
Recorded Endpoint: pKi
Answers are plain numbers, as −log10 of the molar value.

Previously resolved entries follow.
O=C(CCc1ccc2ccccc2c1)c1c(O)cc(Cl)cc1O[C@@H]1O[C@H](CO)[C@@H](O)[C@H](O)[C@H]1O: 7.52
Cc1cc(N)c(C(=O)CCc2ccc3ccccc3c2)c(O[C@@H]2O[C@H](CO)[C@@H](O)[C@H](O)[C@H]2O)c1: 6.28
CCOc1ccc(CCC(=O)c2c(N)cc(C)cc2O[C@@H]2O[C@H](CO)[C@@H](O)[C@H](O)[C@H]2O)cc1: 5.89

Now consider the entry below.
Query: Item under review: CCOc1ccc(CCC(=O)c2c(O)cc(C)cc2O[C@@H]2O[C@H](CO)[C@@H](O)[C@H](O)[C@H]2O)cc1 . Reported pKi?
Result: 8.00

====

Test Summary: Metabolic half-life as a measure of human liver microsomal stability was determined at 5 uM
Assay type: ADME
Condition Notes: liver microsomes
Please go through the items and note down their half-life at 5 µM.

CCOc1ccc(CCC(=O)c2c(O)cc(CC)cc2O[C@@H]2O[C@H](CO)[C@@H](O)[C@H](O)[C@H]2O)cc1: > 45 min

Please supply half-life at 5 µM for each of the following items, keeping them in order.
1. Cc1cc(O)c(C(=O)CCc2ccc3occc3c2)c(O[C@@H]2O[C@H](CO)[C@@H](O)[C@H](O)[C@H]2O)c1
2. CCOc1ccc(CCC(=O)c2c(O)cc(C)cc2O[C@@H]2O[C@H](CO)[C@@H](O)[C@H](O)[C@H]2O)cc1
3. Cc1cc(O)c(C(=O)CCc2ccc3c(c2)OCCO3)c(O[C@@H]2O[C@H](CO)[C@@H](O)[C@H](O)[C@H]2O)c1

Result:
1. 24 min
2. > 45 min
3. > 45 min
